- test_target: Serine/threonine-protein kinase mTOR (Homo sapiens)
- assay_summary: Inhibition of FKBP12-independent human recombinant mTOR expressed in HEK293 cells using His6-S6K1 as a substrate by DELFIA assay
- Assay type: cell-based
Measured IC50 of individual entries
Express your answer in nM, writing the number without its unit.

Example cases with answers are listed next.
Reported IC50 of CC[C@@H]1/C=C(\C)[C@@H](O)[C@@H](OC)C(=O)[C@H](C)C[C@H](C)/C=C/C=C/C=C(\C)[C@@H](OC)C[C@@H]2CC[C@@H](C)[C@@](O)(O2)C(=O)C(=O)N2CCCC[C@H]2C(=O)O[C@H]([C@H](C)C[C@@H]2CC[C@@H](OC(=O)C(C)(CO)CO)[C@H](OC)C2)CC1=O : 2100

Per the records, this molecule ( CC[C@@H]1/C=C/C=C/C=C(\C)[C@@H](OC)C[C@@H]2CC[C@@H](C)[C@@](O)(O2)C(=O)C(=O)N2CCCC[C@H]2C(=O)O[C@H]([C@H](C)C[C@@H]2CC[C@@H](OC(=O)C(C)(CO)CO)[C@H](OC)C2)CC(=O)[C@H](C)/C=C(\C)[C@@H](O)[C@@H](OC)C(=O)[C@H](C)C1 ) has IC50 equal to 2500

Input CO[C@H]1C[C@@H]2CC[C@@H](C)[C@@](O)(O2)C(=O)C(=O)N2CCCC[C@H]2C(=O)O[C@H]([C@H](C)C[C@@H]2CC[C@@H](OC(=O)C(C)(CO)CO)[C@H](OC)C2)CC(=O)[C@H](C)/C=C(\C)[C@@H](O)[C@@H](OC)C(=O)[C@H](C)C[C@H](C)/C=C/C=C/C=C/1C . Output IC50: 1760

Now look at this entry.
Value of measured IC50 for the entry CC[C@@H]1CC[C@H]2C[C@H](OC)/C(C)=C/C=C/C=C/[C@@H](C)C[C@@H](C)C(=O)[C@H](OC)[C@H](O)/C(C)=C/[C@@H](C)C(=O)C[C@@H]([C@H](C)C[C@@H]3CC[C@@H](OC(=O)C(C)(CO)CO)[C@H](OC)C3)OC(=O)[C@@H]3CCCCN3C(=O)C(=O)[C@]1(O)O2 : 1800

====

- Test system: LNCaP
- assay_summary: Antiproliferative activity against human LNCAP cells after 3 days by MTS assay
- Type: functional, cell-based
- study_conditions: 72 h
# IC50 annotations
Answer in nM, number only, no unit symbol.

Test item CC[C@@H]1CC[C@H]2C[C@H](OC)/C(C)=C/C=C/C=C/[C@@H](C)C[C@@H](C)C(=O)[C@H](OC)[C@H](O)/C(C)=C/[C@@H](C)C(=O)C[C@@H]([C@H](C)C[C@@H]3CC[C@@H](OC(=O)C(C)(CO)CO)[C@H](OC)C3)OC(=O)[C@@H]3CCCCN3C(=O)C(=O)[C@]1(O)O2 [HOMOTEMSIROLIMUS A] ; LNCaP; reported IC50 was 2.5

# value of IC50, LNCaP, item CC[C@@H]1/C=C(\C)[C@@H](O)[C@@H](OC)C(=O)[C@H](C)C[C@H](C)/C=C/C=C/C=C(\C)[C@@H](OC)C[C@@H]2CC[C@@H](C)[C@@](O)(O2)C(=O)C(=O)N2CCCC[C@H]2C(=O)O[C@H]([C@H](C)C[C@@H]2CC[C@@H](OC(=O)C(C)(CO)CO)[C@H](OC)C2)CC1=O [HOMOTEMSIROLIMUS C] = 8

I looked up CO[C@H]1C[C@@H]2CC[C@@H](C)[C@@](O)(O2)C(=O)C(=O)N2CCCC[C@H]2C(=O)O[C@H]([C@H](C)C[C@@H]2CC[C@@H](OC(=O)C(C)(CO)CO)[C@H](OC)C2)CC(=O)[C@H](C)/C=C(\C)[C@@H](O)[C@@H](OC)C(=O)[C@H](C)C[C@H](C)/C=C/C=C/C=C/1C [TEMSIROLIMUS] and its IC50 for LNCaP was 0.5

// below: IC50 requested for another compound
LNCaP IC50 of CC[C@@H]1/C=C/C=C/C=C(\C)[C@@H](OC)C[C@@H]2CC[C@@H](C)[C@@](O)(O2)C(=O)C(=O)N2CCCC[C@H]2C(=O)O[C@H]([C@H](C)C[C@@H]2CC[C@@H](OC(=O)C(C)(CO)CO)[C@H](OC)C2)CC(=O)[C@H](C)/C=C(\C)[C@@H](O)[C@@H](OC)C(=O)[C@H](C)C1 [HOMOTEMSIROLIMUS B] is 13
